# Study system: human thrombin (Homo sapiens)
# Protocol description: Thrombin amidase inhibition (Kass), chromogenic substrate
# Type: biochemical
Value type: Kass Human Thrombin (L/mol × 10^6)

• CCOC(=O)N[C@H](Cc1ccccc1)C(=O)N1CCC[C@H]1C(=O)N[C@H](C=O)CCCNC(=N)N.Cl = 170

P = Cl.N=C(N)NCCC[C@@H](C=O)NC(=O)[C@@H]1CCCN1C(=O)[C@@H](Cc1ccccc1)NS(=O)(=O)c1ccc(C(=O)O)cc1
Q = Cl.N=C(N)NCCC[C@@H](C=O)NC(=O)[C@@H]1CCCN1C(=O)[C@@H](Cc1ccccc1)NCC1CCCCC1
**Q:** Decide: P or Q , by lowest recorded Kass Human Thrombin. // caller expects the label of the chosen entry
**A:** P
(P: 70 L/mol × 10^6, Q: 480 L/mol × 10^6)

I = Cl.N=C(N)NCCC[C@@H](C=O)NC(=O)[C@@H]1CCCN1C(=O)[C@@H](Cc1ccccc1)NS(=O)(=O)c1ccccc1
II = Cl.N=C(N)NCCC[C@@H](C=O)NC(=O)[C@@H]1CCCN1C(=O)[C@@H](Cc1ccccc1)NC(=O)Cc1cccnc1
**Q:** Decide: I or II , by lowest recorded Kass Human Thrombin. // caller expects the label of the chosen entry
**A:** II
(II: 13 L/mol × 10^6, I: 270 L/mol × 10^6)

---

# Study system: human thrombin (Homo sapiens, UniProt P00734)
# Protocol description: Thrombin amidase inhibition (Kass), chromogenic substrate
# Type: biochemical
Non-standard residues stand in square brackets, D forms with d. Residues, ends and D or L forms follow the SMILES beside them. dNMeCha = CN[C@H](CC1CCCCC1)C(=O)O
Value type: Kass Human Thrombin (L/mol × 10^6)

Illustrative cases are given below, each with its answer.
* Cl.Cn1c(C(=O)N[C@H](CC2CCCCC2)C(=O)N2CCC[C@H]2C(=O)N[C@H](C=O)CCCNC(=N)N)cc2ccccc21 | 320
* Cl.Cl.Cl.N=C(N)NCCC[C@@H](C=O)NC(=O)[C@@H]1CCCN1C(=O)C1CCCCC1N.O (stereo partly drawn) | 39
* CN[C@H](CC1CCCCC1)C(=O)N1CCC[C@H]1C(=O)N[C@H](C=O)CCCNC(=N)N.Cl [Example 75] (H-[dNMeCha]-Pro-Arg-aldehyde) | 590
* CN[C@@H](C(=O)N1CCC[C@H]1C(=O)N[C@@H](CCCNC(=N)N)C(O)S(=O)(=O)[O-])c1ccccc1.O=S(=O)(O)O.[Na+] (stereo partly drawn) | 239

1 = CNCC(Cc1ccccc1)C(=O)N1CCC[C@H]1C(=O)N[C@H](C=O)CCCNC(=N)N.Cl.Cl.O (stereo partly drawn)
2 = C[C@@]1(C(=O)N[C@H](C=O)CCCNC(=N)N)CCCN1C(=O)[C@H](Cc1ccccc1)NS(C)(=O)=O.Cl
**Q:** Given 1 and 2 , report the one with the higher recorded Kass Human Thrombin. // caller expects the label of the chosen entry
**A:** 1

---

# Study system: factor Xa (Homo sapiens)
# Construct: Human factors X, Xa, IXa, XIa, and XIIa are purchased from Enzyme Research Laboratories; purchased Enzyme Research Laboratories, South Bend, Ind
# Sequence (P00742 235-488 limits assumed): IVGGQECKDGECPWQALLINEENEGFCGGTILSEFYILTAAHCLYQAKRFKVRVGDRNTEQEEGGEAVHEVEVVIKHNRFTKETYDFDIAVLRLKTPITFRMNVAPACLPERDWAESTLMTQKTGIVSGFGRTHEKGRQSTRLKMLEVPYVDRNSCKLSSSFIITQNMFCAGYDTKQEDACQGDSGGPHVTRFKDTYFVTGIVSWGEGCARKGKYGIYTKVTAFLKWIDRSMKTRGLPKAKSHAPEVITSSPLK
# Sequence (P00742 41-179 partner limits assumed): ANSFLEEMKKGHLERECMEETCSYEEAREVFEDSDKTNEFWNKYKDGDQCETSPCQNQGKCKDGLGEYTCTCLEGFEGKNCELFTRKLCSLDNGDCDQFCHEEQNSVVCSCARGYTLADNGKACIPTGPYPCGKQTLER
# Protocol description: Serine protease inhibition (Kass), factor Xa
# Assay type: biochemical
# Excerpt: […]
Value type: Kass Xa (L/mol × 10^6)

- Cl.N=C(N)NCCC[C@@H](C=O)NC(=O)[C@@H]1CCCN1C(=O)[C@@H](Cc1ccccc1)NC(=O)c1cc2ccccc2cn1: 0.16
- CCS(=O)(=O)N[C@@H](Cc1ccccc1)C(=O)N1CCC[C@@]1(C)C(=O)N[C@H](C=O)CCCNC(=N)N.Cl: 0.027
- Cl.Cn1c(C(=O)N[C@H](Cc2ccccc2)C(=O)N2CCC[C@H]2C(=O)N[C@H](C=O)CCCNC(=N)N)cc2ccccc21: 0.51

a = Cl.N=C(N)NCCC[C@@H](C=O)NC(=O)[C@@H]1CCCN1C(=O)[C@@H](Cc1ccccc1)NC(=O)Cc1ccccc1
b = CCS(=O)(=O)NC1(C(=O)N2CCC[C@H]2C(=O)N[C@H](C=O)CCCNC(=N)N)CCCCC1.Cl
**Q:** Given a and b , report the one with the higher recorded Kass Xa. // caller expects the label of the chosen entry
**A:** a
(a: 0.10 L/mol × 10^6, b: 0.036 L/mol × 10^6)
